# target_entity: Solute carrier family 15 member 1 (Homo sapiens, UniProt P46059)
# Sequence (P46059 whole entry): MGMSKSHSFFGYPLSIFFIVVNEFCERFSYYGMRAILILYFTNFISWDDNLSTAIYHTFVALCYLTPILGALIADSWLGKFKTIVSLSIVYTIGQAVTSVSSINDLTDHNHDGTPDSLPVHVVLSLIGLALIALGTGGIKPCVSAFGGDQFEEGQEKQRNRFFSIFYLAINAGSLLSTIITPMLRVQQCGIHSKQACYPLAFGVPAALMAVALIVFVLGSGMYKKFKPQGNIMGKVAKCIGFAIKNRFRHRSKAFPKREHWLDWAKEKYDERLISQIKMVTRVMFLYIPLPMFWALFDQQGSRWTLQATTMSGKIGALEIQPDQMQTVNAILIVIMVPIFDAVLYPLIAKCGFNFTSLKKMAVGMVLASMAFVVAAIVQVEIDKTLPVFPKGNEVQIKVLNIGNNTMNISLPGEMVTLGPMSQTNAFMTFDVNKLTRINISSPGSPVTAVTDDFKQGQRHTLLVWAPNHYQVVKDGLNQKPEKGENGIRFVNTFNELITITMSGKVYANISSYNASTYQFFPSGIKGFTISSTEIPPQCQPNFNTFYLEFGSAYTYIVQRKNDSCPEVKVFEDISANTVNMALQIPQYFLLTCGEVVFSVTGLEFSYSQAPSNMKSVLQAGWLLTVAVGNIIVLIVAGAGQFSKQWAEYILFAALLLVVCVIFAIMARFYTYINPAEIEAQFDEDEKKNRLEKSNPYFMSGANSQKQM
# assay_procedure: Substrate activity at PEPT1 in human Caco-2 cells assessed as inhibition of Gly-Sar substrate uptake by UPLC-MS/MS analysis
In this section, each of the compounds is paired with its reported IC50.
Kindly answer with a numeric value in mM, unit omitted.

>>> print(df.to_string())
                                test_smiles  readout_name  assay_result
0  O=C(N[C@H](CO)C(=O)O)[C@@H]1C[C@@H](O)CN1          IC50          10.2

Problem: Reported IC50, compound O=C(O)[C@H](CO)NC(=O)[C@@H]1C[C@H](O)CN1 : ____
Solution: 9.8

Problem: Reported IC50, compound O=C(O)[C@H](CO)NC(=O)[C@@H]1C[C@@H](O)CN1 : ____
Solution: 5.18

Problem: Reported IC50, compound O=C(O)[C@H](CO)NC(=O)[C@H]1C[C@H](O)CN1 : ____
Solution: 9.6
